Tested Target: Recombinant human his-tagged IGF R extracellular domain protein (human) (UniProt P08069)
Test Details: SPR, Ab captured via anti-huIgG Fc, pH 7.4
The reader will find reported Kd values listed item by item below.
Report as a plain number; the unit nM is understood.

Answered cases to consult:
Recorded Kd of VRDN-02052 (antibody, V domains shown) VH: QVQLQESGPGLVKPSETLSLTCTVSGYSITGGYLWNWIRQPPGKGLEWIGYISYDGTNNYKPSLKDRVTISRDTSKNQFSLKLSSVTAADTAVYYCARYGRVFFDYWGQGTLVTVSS VL: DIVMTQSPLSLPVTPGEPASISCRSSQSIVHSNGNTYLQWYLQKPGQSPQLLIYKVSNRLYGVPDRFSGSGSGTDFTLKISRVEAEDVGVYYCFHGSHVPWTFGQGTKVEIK , please.
0.564

Also VRDN-02027 (antibody, V domains shown) VH: QVQLQESGPGLVKPSETLSLTCTVSGYSITGGYLWNWIRQPPGKGLEWIGYISYDGTNNYKPSLKDRVTISRDTSKNQFSLKLSSVTAADTAVYYCARYGRVFFHYWGQGTLVTVSS VL: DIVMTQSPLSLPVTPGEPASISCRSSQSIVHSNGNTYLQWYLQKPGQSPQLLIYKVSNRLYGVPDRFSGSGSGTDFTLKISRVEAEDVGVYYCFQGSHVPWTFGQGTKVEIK , if possible.
6.73

Next binder: VRDN-02050 (antibody, V domains shown) VH: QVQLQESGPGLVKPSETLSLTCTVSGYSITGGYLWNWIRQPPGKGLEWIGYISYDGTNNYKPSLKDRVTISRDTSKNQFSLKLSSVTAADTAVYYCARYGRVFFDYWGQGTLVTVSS VL: DIVMTQSPLSLPVTPGEPASISCRSSQSIVHSNGNTYLQWYLQKPGQSPQLLIYKVSNRLHGVPDRFSGSGSGTDFTLKISRVEAEDVGVYYCFQGSHVPWTFGQGTKVEIK
0.603

VRDN-02030 (antibody, V domains shown) VH: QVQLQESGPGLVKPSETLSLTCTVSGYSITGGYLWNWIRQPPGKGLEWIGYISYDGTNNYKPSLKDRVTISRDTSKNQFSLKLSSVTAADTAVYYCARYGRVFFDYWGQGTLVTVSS VL: DIVMTQSPLSLPVTPGEPASISCRHSQSIVHSNGNTYLQWYLQKPGQSPQLLIYKVSNRLYGVPDRFSGSGSGTDFTLKISRVEAEDVGVYYCFQGSHVPWTFGQGTKVEIK , same question.
0.646

// same read-out, input: VRDN-02003 (antibody, V domains shown) VH: QVQLQESGPGLVKPSETLSLTCTVSGYHITGGYLWNWIRQPPGKGLEWIGYISYDGTNNYKPSLKDRVTISRDTSKNQFSLKLSSVTAADTAVYYCARYGRVFFDYWGQGTLVTVSS VL: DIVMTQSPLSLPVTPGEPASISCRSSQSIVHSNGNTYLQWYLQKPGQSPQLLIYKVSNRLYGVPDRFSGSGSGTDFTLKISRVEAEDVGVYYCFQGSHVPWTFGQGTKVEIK
0.423

Next record, please: VRDN-02034 (antibody, V domains shown) VH: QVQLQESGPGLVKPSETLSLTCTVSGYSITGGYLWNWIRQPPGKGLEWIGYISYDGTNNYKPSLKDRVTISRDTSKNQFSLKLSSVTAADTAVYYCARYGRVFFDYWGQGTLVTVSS VL: DIVMTQSPLSLPVTPGEPASISCRSSQSHVHSNGNTYLQWYLQKPGQSPQLLIYKVSNRLYGVPDRFSGSGSGTDFTLKISRVEAEDVGVYYCFQGSHVPWTFGQGTKVEIK
1.03

How about VRDN-02054 (antibody, V domains shown) VH: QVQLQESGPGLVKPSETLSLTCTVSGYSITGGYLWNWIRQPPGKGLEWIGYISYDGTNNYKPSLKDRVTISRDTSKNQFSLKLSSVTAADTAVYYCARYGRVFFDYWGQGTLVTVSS VL: DIVMTQSPLSLPVTPGEPASISCRSSQSIVHSNGNTYLQWYLQKPGQSPQLLIYKVSNRLYGVPDRFSGSGSGTDFTLKISRVEAEDVGVYYCFQGHHVPWTFGQGTKVEIK ?
0.838

Request: VRDN-02060 (antibody, V domains shown) VH: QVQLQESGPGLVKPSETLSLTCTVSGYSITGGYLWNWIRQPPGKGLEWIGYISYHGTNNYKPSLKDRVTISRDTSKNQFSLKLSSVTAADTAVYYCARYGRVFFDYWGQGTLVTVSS VL: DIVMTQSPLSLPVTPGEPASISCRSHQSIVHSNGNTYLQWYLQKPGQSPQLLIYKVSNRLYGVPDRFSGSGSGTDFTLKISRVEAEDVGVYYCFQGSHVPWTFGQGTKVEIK
0.249

Repeat with VRDN-02072 (antibody, V domains shown) VH: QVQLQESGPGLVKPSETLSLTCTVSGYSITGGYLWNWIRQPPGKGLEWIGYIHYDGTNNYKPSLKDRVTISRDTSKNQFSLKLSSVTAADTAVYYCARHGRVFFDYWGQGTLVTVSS VL: DIVMTQSPLSLPVTPGEPASISCRSHQSIVHSNGNTYLQWYLQKPGQSPQLLIYKVSNRLYGVPDRFSGSGSGTDFTLKISRVEAEDVGVYYCFQGSHVHWTFGQGTKVEIK
0.281

Moving on to the next binder.
// query Kd value for entry VRDN-02025 (antibody, V domains shown) VH: QVQLQESGPGLVKPSETLSLTCTVSGYSITGGYLWNWIRQPPGKGLEWIGYISYDGTNNYKPSLKDRVTISRDTSKNQFSLKLSSVTAADTAVYYCARYGRVHFDYWGQGTLVTVSS VL: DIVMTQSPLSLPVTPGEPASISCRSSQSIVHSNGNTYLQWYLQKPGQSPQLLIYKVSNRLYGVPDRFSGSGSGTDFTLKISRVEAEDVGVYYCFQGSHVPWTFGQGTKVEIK
2.08
